system: T1, huROR1-His (human ROR1 ECD AA30-406 with C-terminal His tag, made in house) (human, UniProt Q01973 30-406)
T1 construct: range 30-406; Expressed in HEK293; also called antigen protein huROR1-His; not shown: C-terminal His tag
T1 sequence (Q01973 30-406 limits assumed): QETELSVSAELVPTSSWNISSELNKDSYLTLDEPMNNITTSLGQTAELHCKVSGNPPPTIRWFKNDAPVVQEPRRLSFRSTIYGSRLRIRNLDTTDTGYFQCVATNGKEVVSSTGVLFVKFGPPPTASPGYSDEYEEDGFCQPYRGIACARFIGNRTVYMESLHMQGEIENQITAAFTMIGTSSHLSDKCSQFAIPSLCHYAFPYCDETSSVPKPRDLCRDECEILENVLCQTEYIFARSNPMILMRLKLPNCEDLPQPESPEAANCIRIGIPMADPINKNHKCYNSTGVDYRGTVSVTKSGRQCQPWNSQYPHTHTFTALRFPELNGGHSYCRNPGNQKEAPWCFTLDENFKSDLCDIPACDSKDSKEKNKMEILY
procedure-details: Gator (BLI) Advanced Kinetics; antibody 30 nM, huROR1-His 480-7.5 nM
measure: kon (M⁻¹ s⁻¹)
Hi! Could you send only the number? It should be in M⁻¹ s⁻¹, unit omitted.

Previously resolved entries follow.
M78 (chimeric antibody) (antibody, human IgG1, kappa, V domains shown, ExpiCHO expression) VH: EVMLVESGGGLVRPGGSLKLSCAASGFTFSSYAMSWVRQSPEKRLEWVASINRGGTTYYPDSVKGRFTISRDNARDILYLQMSSLRSEDTAIYYCARDYYYGSNLYNGMDYWGQGTSVIVSS VL: DIKITQSPSSMYASLGERVTITCKASQDINSYLSWFQQKPGKSPKTLIYRANRLVDGVPSRFSGSGSGQDYSLTISSLEYEDMGIYYCLQFDEFPYTFGGGTKLEIKR	330000
B34 (chimeric antibody) (antibody, human IgG1, kappa, V domains shown, ExpiCHO expression) VH: EVQLVESGGGLVQPKGSLKLSCAASGFTFSRYAMSWVRQTPEKRLEWVASISTGGSPYYPDSVKGRFTISRDNARNILYLQMSSLKSEDTAMYYCARGYYYNSSPHWYFAVWGAGTSVTVSS VL: DIQMTQSPSSLSASLGERVTITCKASQDINSYLSWFQQKPGKSPKTLIYRANRLVDGVPSRFSGSGSGQDYSLTISSLEYEDMGIYYCLQYDEFPYTFGGGTKLEIKR	241000
B32 (chimeric antibody) (antibody, human IgG1, kappa, V domains shown, ExpiCHO expression) VH: EVKLMESGGGLVKPGGSLKLSCAASGFAFSSYAMSWVRQTPDKRLEWVASINRDVTTYYPDSMKGRFTISRDNARNILYLQMSSLRSEDTAMYYCARGYYYGGGPYWHFDVWGAGTTVTVSS VL: DIQITQSPSSMYASLGERVTITCKASQDINSYLTWFQQKPGKSPKTLIYRANRLVDGVPSRFSGSGSGQDYSLTISSLEYEDMGIYYCLQFDEFPYTFGGGTKLEIKR	301000

Dear colleague, I am looking for the recorded kon of the following binder: B39 (chimeric antibody) (antibody, human IgG1, kappa, V domains shown, ExpiCHO expression) VH: EVKLVESGGGLVKPGGSLKLSCAASGFTFSTYAMSWVRQTPEKRLEWVASISTGASTYYPDSVKGRFTISRDNARNILYLQMSSLRSEDTAMYYCAREETTTAALYYAMDYWGQGTSVTVSS VL: DIKITQSPSSMYASLGERVTITCKASQDINNYLSWFQQKPGKSPKTLIYRANRLVDGVPSRFSGSGSGQDYSLTISSLEYEDMGIYYCLQFDEFPYTFGGGTKLEIKR
304000

Dear colleague, I am looking for the recorded kon of the following binder: B62 (chimeric antibody) (antibody, human IgG1, kappa, V domains shown, ExpiCHO expression) VH: DVKLVESGGGLVQPGGSLKLSCAASGFTFSSYVMSWVRQTPDKRLELVATINSNGGNTYYPDSVKGRFTISRDNAKNTLYLQMSSLKSEDTAMYYCARDSLGLRRRDYAMDYWGQGTSVTVSS VL: DIVLTQSPASLSMAIGEKVTIRCVTSIDIDDDVNWYQQKPGKPPKLLISAGNTLRPGVPSRFSSSGYGTDFVFTIENMLSEDVADYYCLQSDNLPYTFGGGTKLEIKR
379000

Dear colleague, I am looking for the recorded kon of the following binder: B31 (chimeric antibody) (antibody, human IgG1, kappa, V domains shown, ExpiCHO expression) VH: EVMLVESGGGLVKPGGSLKLSCAASGFTFSRYAMSWVRQTPEKRLEWVASISRGGSTYYPDSVKGRFTISRDNARNILYLQMSSLRSEDTAMYYCASYFGNYDAMDYWGQGTSVTVSS VL: DIQMNQSPSSMYASLGERVTITCKASQDINNYVSWFQQKPGKSPKTLIYRANRLVDGVPSRFSGSGSGQDYSFTISSLEYEDMGIYYCLQFDEFPYTFGGGTKLEIKR
383000

src = patent US20250177546A1
